Values compiled from paper PMC12449377.

Here, each record is paired with measured pKi data.
- test_target: 5-HT2A (Mus musculus, UniProt P35363)
- Construct: tissue BioIVT; host or cells: whole C57BL/6 mouse brain minus cerebellum, male and female
- Sequence (P35363 whole entry): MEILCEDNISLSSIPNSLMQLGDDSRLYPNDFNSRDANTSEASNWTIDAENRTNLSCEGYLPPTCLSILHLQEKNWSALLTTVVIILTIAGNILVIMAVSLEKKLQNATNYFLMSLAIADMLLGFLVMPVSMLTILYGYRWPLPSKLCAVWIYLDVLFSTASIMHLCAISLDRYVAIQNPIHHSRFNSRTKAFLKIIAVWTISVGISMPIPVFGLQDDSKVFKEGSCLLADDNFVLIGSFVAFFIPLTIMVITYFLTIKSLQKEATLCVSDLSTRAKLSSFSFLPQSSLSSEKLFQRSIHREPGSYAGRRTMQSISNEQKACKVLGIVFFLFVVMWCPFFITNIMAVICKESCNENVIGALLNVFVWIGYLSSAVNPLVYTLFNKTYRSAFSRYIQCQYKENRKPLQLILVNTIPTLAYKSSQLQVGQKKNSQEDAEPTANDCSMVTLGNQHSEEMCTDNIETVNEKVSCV
- assay_explanation: Competition binding vs [3H]M100907 in mouse brain membranes
- experimental_setup: 5-HT2A binding affinity (Ki), males and females, male and female mouse brain membranes, summary statement
- Experimental: Competition binding studies were conducted in mouse brain tissue as previously described (Glatfelter et al. [2022b]). Briefly, the experiments utilized membranes prepared from whole C57BL/6 mouse brain minus cerebellum (BioIVT, Westbury, NY, USA). […] We assessed the ability of test drugs to compete for [^3H]M100907 binding at 5-HT2A (1 nM) or [^3H]8-OH-DPAT binding at 5-HT1A (0.5 nM). […] Nonspecific binding was determined using 10 µM ketanserin for 5-HT2A and serotonin for 5-HT1A. […]
pKi: −log10 of the molar value.
outcome_measure: pKi

INSERT INTO assay_data (molecule, outcome_measure, result) VALUES
  ('CN(C)CCc1c[nH]c2cccc(O)c12', 'pKi', '7.00 to 9.00'),
  ('CCN(CC)C(=O)[C@@H]1C=C2c3cccc4[nH]cc(c34)C[C@H]2N(C)C1 [LSD, lysergic acid diethylamide]', 'pKi', '7.00 to 9.00');
